assay: NCI Yeast Anticancer Drug Screen. Data for the mlh1 rad18 strain (AID 175); settings: S. cerevisiae mlh1 rad18 strain growth inhibition; at 50.0 µM; hits give high values
Compounds without any hit were thinned out: in the full panel of roughly 79,000, 15% have a hit.
Readout Label: growth inhibition (%)
The reply should contain only the number, in %.

Molecule: c1ccc(C2CCN3c4ccc5ccccc5c4NCC23)cc1 (stereo not given)
Reading: 67.3
//
Molecule: Cc1ccc(N=Nc2ccc(O)c(CN(C)C)c2)cc1
Reading: -17.1
//
Molecule: COc1cc2c(cc1OC)-c1cc3cc(OC)c(OC)cc3c(C)[n+]1CC2 (tested in a mixture with another compound)
Reading: -66.8
//
Molecule: COc1cc(N=Nc2c(Cl)cc([N+](=O)[O-])cc2Cl)c(OC)cc1N=Nc1ccc(N)nc1N
Reading: 9.45

Ask | Field request: growth inhibition | item: `O=C1OC(c2ccc(Cl)cc2)=N/C1=C\c1ccc(Cl)c(Cl)c1`
Reply | 31.7
